- Tested on: peripheral blood mononuclear cells (PBMC), T cells
- assay: ELISpot assay, IL-5 release (SFC) after stimulation with a-synuclein epitope pools
- Format: cell-based, human
- conditionSummary: single peptide; second 'Pool Stimulated' section (from r296), 12 donors tested
Field: IL-g Total SFC. Provide a value for each of the substances that follow.
Write down the value, and be sure its unit follows.

Below, each entry is followed by its recorded IL-g Total SFC result.
3521.004 (DNEAYEMPSE; listed as Homo sapiens) : 0 SFC
3521.007 (GVVAAAEKTK; listed as Homo sapiens) : 0 SFC
3521.0027 (AYEMPSEEGY; listed as Homo sapiens) : 0 SFC
3521.0066 (KAKEGVVAA; listed as Homo sapiens) : 0 SFC
3521.0069 (GVAEAAGKTK; listed as Homo sapiens) : 0 SFC
3521.0013 (VTNVGGAVV; listed as Homo sapiens) : 0 SFC
3521.0025 (EEGAPQEGI; listed as Homo sapiens) : 0 SFC
3521.0058 (SEEGYQDYEP; listed as Homo sapiens) : 58 SFC

// for each substance in input: emit IL-g Total SFC
1. 3521.0032 (GAVVTGVTAV; listed as Homo sapiens)
2. 3521.0022 (GSIAAATGF; listed as Homo sapiens)
3. 3521.0044 (GVTAVAQKTV; listed as Homo sapiens)

Solution:
0 SFC
0 SFC
0 SFC

// for each substance in input: emit IL-g Total SFC
1. 3521.0073 (TTVAEKTKEQVTNVG; listed as Homo sapiens)
2. 3521.0079 (KGVVHGVATVAEKTK; listed as Homo sapiens)
3. 3521.0051 (EEGAPQEGIL; listed as Homo sapiens)
4. 3521.0035 (SIAAATGFVK; listed as Homo sapiens)
5. 3521.0049 (APQEGILEDM; listed as Homo sapiens)

Solution:
1: 0 SFC; 2: 284 SFC; 3: 1028 SFC; 4: 536 SFC; 5: 0 SFC

// for each substance in input: emit IL-g Total SFC
1. 3521.0018 (MPVDPDNEA; listed as Homo sapiens)
2. 3521.0024 (DPDNEAYEM; listed as Homo sapiens)
3. 3521.0011 (QVTNVGGAV; listed as Homo sapiens)
4. 3521.0003 (SIAAATGFV; listed as Homo sapiens)

Solution:
1: 0 SFC; 2: 300 SFC; 3: 0 SFC; 4: 0 SFC

// for each substance in input: emit IL-g Total SFC
1. 3521.0047 (IAAATGFVKK; listed as Homo sapiens)
2. 3521.0005 (AVVTGVTAV; listed as Homo sapiens)
3. 3521.0008 (IAAATGFVK; listed as Homo sapiens)
4. 3521.005 (APGKTKEGVL; listed as Homo sapiens)
5. 3521.0068 (GVAEAPGKTK; listed as Homo sapiens)
6. 3521.0019 (APGKTKEGV; listed as Homo sapiens)
7. 3521.0048 (EQVTNVGGAV; listed as Homo sapiens)
8. 3521.0054 (MPVDPDNEAY; listed as Homo sapiens)

Solution:
1: 0 SFC; 2: 0 SFC; 3: 0 SFC; 4: 0 SFC; 5: 0 SFC; 6: 0 SFC; 7: 0 SFC; 8: 58 SFC
